Please respond with reported TGI for every item in the list.
# Test system: SN12C renal
# methodNotes: NCI tumour cell line growth inhibition, 48 h

Worked cases, answers included:
# sampleSmiles, assayedSystem, quantityMeasured, recordedValue
data = [
    ("N=C1N=C(N)S/C1=C\\c1ccc2ncccc2c1", "SN12C renal", "TGI", "> 25 µM"),
    ("CCOC(=O)N1CCc2cc(OC)c(OC)cc2/C1=C/c1ccc(OC)c(OC)c1", "SN12C renal", "TGI", "> 100 µM"),
]

Now for a further compound.
Prompt: So what TGI did Nc1ncnc2c1ncn2[C@@H]1C[C@H](NO)[C@@H](O)[C@H]1O get with SN12C renal?
Response: > 100 µM
